# reported apparent KD of MS2 coat protein; entries follow
# System: MS2 coat protein
# experimental.protocol: apparent KD of MS2 coat protein; designed switch direction (-1 OFF switch, 1 ON switch): 1; higher = weaker reporter binding
# condition.parameters: Eterna round: R95; input ligand: none
Please state the number and follow it with the unit.

Examples with their reported apparent KD of MS2 coat protein follow.
CGUAGGUAGCUGGAGGAUAUUCGAGUGGUAACAUGAGGAUCACCCAUGUGGAGAGAGGUACAUGAGGAGAAGGCUAGCUGCCUGC [JL-ss2-3.14 JL mod] (puzzle: Same State 2): 27.1 nM
GCAGUACUAGCAGAGGAUAUGUCGGUAACGACAUGAGGAUCACCCAUGUGUACGAAAGUGCUCAGACAGAAGGCUGAGUACUGCU [Same State 2 - Hyphema v.1] (puzzle: Same State 2): 78.4 nM
CGUCCGGCCUGUGCUGGCCGGAUGCAUGUACAUGAGGAUCACCCAUGUUCAUGUGCAGGCUUUUUGCUCGUCUUGUG [salish99_mir208a_r3_008] (puzzle: Sensor for hsa-mir-208a): 23.1 nM
GGUCCAGCCUGAGCUGGACAAAAGCAUGUACAUGAGGAUCACCCAUGUUCAUGUACAAGCUUUUUGCUCGUCUUACG [salish99_208a_r3_086] (puzzle: Sensor for hsa-mir-208a): 844 nM
UGUCCAGCCUGAGCUGGACAAAAGCAUGUACAUGAGGAUCACCCAUGUUCAUGUACAAGCUUUUUGCUCGUCUUGCA [salish99_208a_r3_109x] (puzzle: Sensor for hsa-mir-208a): 492 nM

Q: Look up apparent KD of MS2 coat protein for this sequence: UAGAAACAUGAGGAUCACCCAUGUGGGUUAAACACAGGAUAUCACGCCAAAAGAAAAGCGUGAGAAGGGUGACCGA [Xeusisus] (puzzle: Same State 1)
Ans: 161 nM

Q: And for UACAAUCUAUCUCAGGAUAUCAUGUCAAAGACAUGAGGAUCACCCAUGUACCAGGAAACUGGUUAUGAGAAGGGAGAUAGAUUGU [Mat - Same State 2 - Mod - D24] (puzzle: Same State 2) ?
Ans: 77.9 nM

Q: And for AGUCCAGCAUGAGCUGGACAAAAGCAUGUACAUGAGGAUCACCCAUGUUCAUGUACAAGCUUUUUGCUCGUCUUAAG [Mat - hsa-mir-208a - Mod of JL - 63] (puzzle: Sensor for hsa-mir-208a) ?
Ans: 802 nM

Q: And for GUGGCCCAGGCACAGGAUAUGUUUCUCGUAACAUGAGGAUCACCCAUGUGCCUAUGAGAUAUAAUGCAGAAGGGUGCACGCCACG [Mat - Same State 2 - Mod of UCT - D80] (puzzle: Same State 2) ?
Ans: 60.9 nM
